The following compounds are shown together with reported LD50 at 168 h values.
PROTOCOL_TEXT: in vivo
PARTICULARS: mouse, ip, mice, intraperitoneal, observed one week, read-out: average lethal dose (LD50), Intraperitoneal Route

{"columns": ["COMPOUND", "LD50 at 168 h (mg/kg)"],
 "data": [
  ["CCc1ncc(C(=O)O)s1 [2-ethyl-5-thiazolecarboxylic acid, 2-Ethyl-5-thiazolecarboxylic acid]", 525],
  ["CCCc1ncc(C(=O)O)s1 [2-propyl-5-thiazolecarboxylic acid]", 1680]
]}

---

PROTOCOL_TEXT: Solubility (qualitative)
Assay type: physicochemical
PARTICULARS: water
REPORTED_METRIC: solubility in water

{"columns": ["COMPOUND", "RESULT"],
 "data": [
  ["CCCc1ncc(C(=O)OCCc2ccccc2)s1", "insoluble in water"],
  ["CCCCCc1ncc(C(=O)O)s1", "insoluble in water"],
  ["CCCc1ncc(C(=O)OCc2ccccc2)s1 [benzyl 2-propyl-5-thiazolecarboxylate, Benzyl 2-propyl-5-thiazolecarboxylate]", "insoluble in water"],
  ["CCCCCCCCCCCc1ncc(C(=O)O)s1", "insoluble in water"],
  ["CCCCCCc1ncc(C(=O)O)s1", "insoluble in water"],
  ["CCCc1ncc(C(=O)OCCN(CC)CC)s1", "soluble in water"],
  ["CCc1ncc(C(=O)O)s1", "insoluble in water"],
  ["CCCCc1ncc(C(=O)O)s1", "insoluble in water"],
  ["CCCc1ncc(C(=O)O)s1 [diisopropylammonium 2-propyl-5-thiazolecarboxylate]", "soluble in water"],
  ["CCCc1ncc(C(=O)O)s1 [2-propyl-5-thiazolecarboxylic acid]", "insoluble in water"],
  ["CCCc1ncc(C(=O)OCC2COC(C)(C)O2)s1 (centres unmarked)", "insoluble in water"]
]}

meta.source: patent US4045567A
